# assayed_system: UniProtKB Q6ZQW0
# assay_comment: Cellular IDO2 assay, doxycycline and 5-methoxy-L-tryptophan medium, colorimetric
# Assay type: cell-based
# test_settings: cellular level, 72 h incubation, signal at 480 nm
test_readout: IC50

Check out these entries, answers already filled in.
| molecule | IC50 |
| --- | --- |
| O=C(NCc1ccc2c(=O)n3c(nc2c1)C(=O)c1cc(F)ccc1-3)OCc1ccccc1 | < 50 nM |
| CS(=O)(=O)NCc1ccc2nc3n(c(=O)c2c1)-c1ccc(F)cc1C3=O | < 50 nM |

For the molecule shown here, Nc1ccc2c(c1)C(=O)c1nc3cc(Cl)ccc3c(=O)n1-2 , give the reported IC50.
50 to 500 nM

What value of IC50 has been recorded for this entry: NS(=O)(=O)c1ccc2c(c1)C(=O)c1nc3cc(F)cc(F)c3c(=O)n1-2
50 to 500 nM

Recorded IC50 for N#Cc1ccc2c(c1)C(=O)c1nc3c(Nc4ccc(F)cc4)cccc3c(=O)n1-2 , please?
< 50 nM

I am curious: what IC50 value has been reported for NS(=O)(=O)c1ccc2c(c1)C(=O)c1nc3c(Cl)cccc3c(=O)n1-2 ?
50 to 500 nM

Requested field: IC50. Item: O=C1c2c(F)cc(F)cc2NC2C(O)c3cc([N+](=O)[O-])ccc3N12 (stereo not shown)
50 to 500 nM

---

# pIC50 values compiled below
# assayed_system: IDO2 (Homo sapiens (Human), UniProt Q6ZQW0)
# Sequence (Q6ZQW0 whole entry, species assumed): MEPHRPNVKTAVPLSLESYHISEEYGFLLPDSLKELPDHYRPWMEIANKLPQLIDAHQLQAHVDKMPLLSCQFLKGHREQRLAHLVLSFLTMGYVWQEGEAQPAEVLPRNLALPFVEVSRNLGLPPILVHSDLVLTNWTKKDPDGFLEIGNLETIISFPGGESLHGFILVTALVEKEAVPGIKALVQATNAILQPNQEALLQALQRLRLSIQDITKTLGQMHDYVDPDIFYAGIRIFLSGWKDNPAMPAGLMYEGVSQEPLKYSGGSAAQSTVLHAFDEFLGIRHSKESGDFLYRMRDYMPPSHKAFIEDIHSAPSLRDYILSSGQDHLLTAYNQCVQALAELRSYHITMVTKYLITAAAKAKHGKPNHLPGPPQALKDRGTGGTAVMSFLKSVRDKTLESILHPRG
# assay_comment: Cellular IDO2 assay, doxycycline and 5-methoxy-L-tryptophan medium, colorimetric
# Format: cell-based
# test_settings: cellular level, 72 h incubation, signal at 480 nm
pIC50: −log10 of the molar value. Structures can show the parent of a compound that is named as a salt.

See these solved cases before continuing.
| molecule | reported |
| --- | --- |
| NCc1ccc2c(=O)n3c(nc2c1)C(=O)c1cc(F)ccc1-3 [Compound 90, Hydrochloride Salt] | 6.30 to 7.30 |
| O=C1c2cc(SCc3ccccc3)ccc2-n2c1nc1c(Nc3ccc(F)cc3)cccc1c2=O | < 6.30 |
| CO/N=C1/c2cc(F)ccc2-n2c1nc1cc(-n3ccnc3)ccc1c2=O | > 7.30 |
| O=C(O)c1ccc2nc3n(c(=O)c2c1)-c1ccc(F)cc1C3=O | < 6.30 |

So what does the record say about pIC50 for O=C1c2cc(F)ccc2-n2c1nc1ccc(-n3ccnc3)cc1c2=O ?
> 7.30

Fill in the blank: the reported pIC50 of CC(C)(C)OC(=O)N1CCN(C(=O)c2ccc3c(c2)C(=O)c2nc4cc(Cl)cc(Cl)c4c(=O)n2-3)CC1 is ____.
6.30 to 7.30

Value lookup for pIC50; key = [N-]=[N+]=Nc1ccc2c(c1)C(=O)c1nc3cc(Cl)ccc3c(=O)n1-2
> 7.30

---

# assayed_system: IDO2 (Homo sapiens (Human), UniProt Q6ZQW0)
# assay_comment: Cellular IDO2 assay, doxycycline and 5-methoxy-L-tryptophan medium, colorimetric
# Type: cell-based
# test_settings: cellular level, 72 h incubation, signal at 480 nm
test_readout: IC50

| compound | assayed_system | IC50 |
| --- | --- | --- |
| Cc1ccc(F)c2c(=O)n3c(nc12)C(=O)c1cc([N+](=O)[O-])ccc1-3 | IDO2 (Homo sapiens (Human), UniProt Q6ZQW0) | 50 to 500 nM |
| NC(=O)c1ccc2c(c1)C(=O)c1nc3cc(Cl)ccc3c(=O)n1-2 | IDO2 (Homo sapiens (Human), UniProt Q6ZQW0) | 50 to 500 nM |
| O=C(O)c1ccc2c(c1)C(=O)c1nc3cc(Cl)cc(Cl)c3c(=O)n1-2 | IDO2 (Homo sapiens (Human), UniProt Q6ZQW0) | > 500 nM |

Could you now look at the following compound, please?
Query (compound): N#Cc1ccc2c(c1)C(=O)c1nc3cc(Cl)cc(Cl)c3c(=O)n1-2 ; field requested: IC50
< 50 nM
